Test: Antioxidant activity assessed as trolox equivalent of AAPH radical scavenging activity preincubated for 15 mins followed by addition of AAPH solution measured for 80 mins by ORAC-FL method
Type: physicochemical
So basically: is Activity under 2 umolequiv/umol? Then y. Not under? Then n.

Past entries and their recorded results:
1) Cc1ccc(C[n+]2ccc(C(=O)NCCc3c[nH]c4ccccc34)cc2)cc1.[Br-]
y
2) COc1ccc2[nH]cc(CCNC(=O)CCc3cc[n+](Cc4cccc(F)c4)cc3)c2c1.[Br-]
n
3) COc1ccc2[nH]cc(CCNC(=O)CCc3cc[n+](Cc4ccccc4F)cc3)c2c1.[Br-]
n

IN: For `O=C(NCCc1c[nH]c2ccccc12)c1cc[n+](Cc2cccc(F)c2)cc1.[Br-]` , is the recorded Activity below the cut-off of 2 umolequiv/umol?
OUT: y

IN: For `COc1ccc2[nH]cc(CCNC(C)=O)c2c1` , is the recorded Activity below the cut-off of 2 umolequiv/umol?
OUT: n

IN: For `O=C(NCCc1c[nH]c2ccccc12)c1cc[n+](Cc2ccccc2F)cc1.[Br-]` , is the recorded Activity below the cut-off of 2 umolequiv/umol?
OUT: y
